# system: Recombinant human Mat2a (Homo sapiens (Human), UniProt P31153)
# Sequence (P31153 whole entry): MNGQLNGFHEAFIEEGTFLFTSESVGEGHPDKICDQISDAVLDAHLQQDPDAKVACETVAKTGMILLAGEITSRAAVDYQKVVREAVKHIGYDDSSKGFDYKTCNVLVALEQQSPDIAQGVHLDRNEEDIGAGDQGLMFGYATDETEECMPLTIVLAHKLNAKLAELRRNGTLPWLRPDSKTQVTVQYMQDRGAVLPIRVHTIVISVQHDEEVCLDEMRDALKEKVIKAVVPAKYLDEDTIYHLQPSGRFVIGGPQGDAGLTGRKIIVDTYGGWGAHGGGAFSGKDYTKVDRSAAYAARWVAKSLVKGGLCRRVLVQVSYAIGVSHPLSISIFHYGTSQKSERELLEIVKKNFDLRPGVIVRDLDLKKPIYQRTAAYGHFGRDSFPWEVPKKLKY
# assay_notes: Determination of Mat2A activity: 384 well format absorbance-based Mat2A inhibition assay
# condition_label: 12.5 nM Mat2A, 100 μM ATP and Methionine, 2% DMSO, 120 minutes at RT, Biomol Green, absorbance at 635 nm
hey, just use 1 if measured IC50 is less than 200 nM, otherwise -1

| compound | label_value |
| --- | --- |
| Nc1nn(C(=O)c2ccccc2OC(F)F)c2nc(C3CC3)ccc12 [Example 61] | 1 |
| Nc1nn(C(=O)c2cccc3c2OCO3)c2nc(C3CC3)ccc12 [Example 19] | -1 |
| Cc1cccc(C(=O)n2nc(N)c3ccc(C4CC4)nc32)c1C [Example 55] | -1 |
| Cc1ccccc1C(=O)n1nc(N)c2cc(Cl)c(C3CC3)nc21 [Example 9] | -1 |
| Cc1ncsc1C(=O)n1nc(N)c2ccc(C3CC3)nc21 [Example 63] | 1 |
| Cc1ccccc1C(=O)n1nc(N)c2ccc(C3CCCC3)nc21 [Example 29] | -1 |
| COc1c(F)cccc1C(=O)n1nc(N)c2ccc(C3CC3(F)F)nc21 (stereo not drawn) [Example 45] | 1 |
| COc1ccccc1C(=O)n1nc(N)c2cc(F)c(N3CC(F)(F)C3)nc21 [Example 14] | 1 |

====

# system: Recombinant human Mat2a (Homo sapiens (Human), UniProt P31153)
# assay_notes: Determination of Mat2A activity: 384 well format absorbance-based Mat2A inhibition assay
# condition_label: 12.5 nM Mat2A, 100 μM ATP and Methionine, 2% DMSO, 120 minutes at RT, Biomol Green, absorbance at 635 nm
hey, just use 1 (yes) if measured IC50 is less than 300 nM, otherwise 0 (no)

| compound | label_value |
| --- | --- |
| COc1ccccc1C(=O)n1nc(N)c2ccc([C@H]3C[C@@H]3C)nc21 (racemic) [Example 34] | 1 (yes) |
| Nc1nn(C(=O)c2ccccc2Cl)c2nc(N3CCCC3)c(F)cc12 [Example 12] | 1 (yes) |
| COc1c(Cl)cccc1C(=O)n1nc(N)c2ccc(C3CC3)nc21 [Example 71] | 0 (no) |
| COc1ccccc1C(=O)n1nc(N)c2ccc(-c3ccccc3)nc21 [Example 1] | 1 (yes) |
| Nc1nn(C(=O)c2ccccc2Cl)c2nc(N3CCCC3)ncc12 [Example 18] | 0 (no) |
| COc1ccccc1C(=O)n1nc(N)c2cc(F)c(-c3ccccc3)nc21 [Example 10] | 1 (yes) |
| Cc1ocnc1C(=O)n1nc(N)c2ccc(C3CC3)nc21 [Example 62] | 0 (no) |
| COc1ccccc1C(=O)n1nc(N)c2ccc(C3=CCCCO3)nc21 [Example 22] | 0 (no) |
| CCc1ccccc1C(=O)n1nc(N)c2ccc(C3CC3)nc21 [Example 60] | 1 (yes) |
| COc1ccccc1C(=O)n1nc(N)c2ccc(C3=CCCC3)nc21 [Example 23] | 1 (yes) |
| Nc1nn(C(=O)C2CCNC(=O)C2)c2nc(C3CC3)ccc12 (centres unmarked) [Example 69] | 1 (yes) |
| COC1CCCCC1C(=O)n1nc(N)c2ccc(C3CC3)nc21 (centres unmarked) [Example 37] | 1 (yes) |
| Cc1ccccc1C(=O)n1nc(N)c2ccc(N3CCCC3)nc21 [Example 5] | 1 (yes) |
| Cc1ccccc1C(=O)n1nc(N)c2ccc(C3CCC3)nc21 [Example 31] | 1 (yes) |
| Cc1ncccc1C(=O)n1nc(N)c2ccc(C3CC3)nc21 [Example 68] | 1 (yes) |
| Nc1nn(C(=O)C2CCCOC2)c2nc(C3CC3)ccc12 (centres unmarked) [Example 73] | 1 (yes) |
| COc1ccccc1C(=O)n1nc(N)c2ccc([C@@H]3C[C@H]3C(F)(F)F)nc21 (racemic) [Example 42] | 1 (yes) |
| Nc1nn(C(=O)C2CCCCC2)c2nc(C3CC3)ccc12 [Example 56] | 0 (no) |
| Cc1nscc1C(=O)n1nc(N)c2ccc(C3CC3)nc21 [Example 79] | 1 (yes) |
| COc1ccccc1C(=O)n1nc(N)c2ccc(C3CCC3)nc21 [Example 32] | 1 (yes) |
